# assayExplanation: in vitro
# measurementContext: human, 293 cells
recordedMetric: MNTC at 144 h

INSERT INTO assay_data (molecule, reportedresult) VALUES
  ('Nc1nc(O)c2ncn(COC(CO)CO)c2n1 [Ganciclovir, ganciclovir]', '> 6000 µg/mL');

---

# assayExplanation: in vitro
# measurementContext: human, 293 cells
recordedMetric: CC50 at 144 h

INSERT INTO results (structurestring, recordedmetric, reportedresult) VALUES
  ('Nc1nc(O)c2ncn(COC(CO)CO)c2n1', 'CC50 at 144 h', '> 6000 µg/mL');
